FYI, the data here is from ChEMBL document CHEMBL4706614.

assayed_system: Proteasome Macropain subunit (Homo sapiens)
assay_name: Inhibition of trypsin-like activity 20S proteasome beta subunit 2 of human MCF7 cells using fluorogenic substrate Boc-LRR-AMC at 10 uM after 1 hr by fluorescence analysis relative to control
Format: cell-based
The source made the active and inactive calls. The rule behind the calls is not given here. Residues, ends and D or L forms follow the SMILES beside them. *: point of attachment. Cbz = O=C(OCc1ccccc1)*
measured_quantity: inhibition

Sample answers from the record:
Cc1cccnc1NC(=O)c1ccc(NC2=C(Cl)C(=O)c3ccccc3C2=O)cc1: inactive
CC(C)c1ccccc1NC(=O)c1ccc(NC2=C(Cl)C(=O)c3ccccc3C2=O)cc1: inactive
O=C1C(Cl)=C(Nc2ccc(S(=O)(=O)Nc3ccc(Cl)cn3)cc2)C(=O)c2ccccc21: 35%
O=C1C(Cl)=C(Nc2ccc(S(=O)(=O)Nc3cccc([N+](=O)[O-])c3)cc2)C(=O)c2ccccc21: 19.4%
O=C1C(Cl)=C(Nc2ccc(S(=O)(=O)N3CCOCC3)cc2)C(=O)c2ccccc21: 2.76%
O=C1C(Cl)=C(Nc2ccc(S(=O)(=O)Nc3cccc(Cl)c3)cc2)C(=O)c2ccccc21: 24.5%
O=C(Nc1cccnc1)c1ccc(NC2=C(Cl)C(=O)c3ccccc3C2=O)cc1: inactive
O=C1C(Cl)=C(Nc2ccc(S(=O)(=O)Nc3ccccc3[N+](=O)[O-])cc2)C(=O)c2ccccc21: 21.3%

State the recorded inhibition for every item in the following list.
1. O=C1C(Cl)=C(Nc2ccc(S(=O)(=O)Nc3ccccc3Cl)cc2)C(=O)c2ccccc21
2. Cc1cc(NC(=O)c2ccc(NC3=C(Cl)C(=O)c4ccccc4C3=O)cc2)no1
3. Cc1ccnc(NC(=O)c2ccc(NC3=C(Cl)C(=O)c4ccccc4C3=O)cc2)c1
4. O=C(Nc1cccc2ccccc12)c1ccc(NC2=C(Cl)C(=O)c3ccccc3C2=O)cc1
5. O=C(Nc1ccc(Cl)cc1)c1ccc(NC2=C(Cl)C(=O)c3ccccc3C2=O)cc1

OUTPUT:
1: 6.29%; 2: 6.55%; 3: inactive; 4: 4.41%; 5: 1.55%

Respectfully, I request inhibition for each entry included below.
1. O=C(Nc1ccncc1)c1ccc(NC2=C(Cl)C(=O)c3ccccc3C2=O)cc1
2. CC(C)C[C@@H](C=O)NC(=O)[C@H](CC(C)C)NC(=O)[C@H](CC(C)C)NC(=O)OCc1ccccc1 (Cbz-Leu-Leu-Leu-aldehyde)
3. Cc1ccnc(NS(=O)(=O)c2ccc(NC3=C(Cl)C(=O)c4ccccc4C3=O)cc2)c1
4. Cc1cccc(NC(=O)c2ccc(NC3=C(Cl)C(=O)c4ccccc4C3=O)cc2)c1
5. O=C1C(Cl)=C(Nc2ccc(S(=O)(=O)Nc3cccc4ccccc34)cc2)C(=O)c2ccccc21

OUTPUT:
["2.43%", "51.4%", "7.26%", "3.39%", "21.2%"]

* * *

assayed_system: Proteasome component C5 (Homo sapiens) (UniProt P20618)
Sequence (whole entry): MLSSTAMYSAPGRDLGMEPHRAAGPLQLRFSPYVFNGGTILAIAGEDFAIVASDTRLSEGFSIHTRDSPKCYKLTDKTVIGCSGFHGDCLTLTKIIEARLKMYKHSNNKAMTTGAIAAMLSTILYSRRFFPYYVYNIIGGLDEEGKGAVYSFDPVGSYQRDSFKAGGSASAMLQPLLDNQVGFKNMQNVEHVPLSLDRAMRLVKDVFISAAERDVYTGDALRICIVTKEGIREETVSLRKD
assay_name: Inhibition of caspase-like activity 20S proteasome beta subunit 1 of human MCF7 cells using fluorogenic substrate Z-LLE-AMC at 10 uM after 1 hr by fluorescence analysis relative to control
Format: cell-based
Give inhibition for every item shown.
Give bare numbers, in %.

Below, 3 molecules whose answers are already recorded.
O=C1C(Cl)=C(Nc2ccc(S(=O)(=O)Nc3ccccc3[N+](=O)[O-])cc2)C(=O)c2ccccc21: 14.2
Cc1cccnc1NC(=O)c1ccc(NC2=C(Cl)C(=O)c3ccccc3C2=O)cc1: 9.52
CC(C)c1ccccc1NS(=O)(=O)c1ccc(NC2=C(Cl)C(=O)c3ccccc3C2=O)cc1: 11.5

Return reported inhibition values for all items listed beneath this line.
1. Cc1csc(NC(=O)c2ccc(NC3=C(Cl)C(=O)c4ccccc4C3=O)cc2)n1
2. O=C1C(Cl)=C(Nc2ccc(S(=O)(=O)Nc3cccc4ccccc34)cc2)C(=O)c2ccccc21
3. O=C1C(Cl)=C(Nc2ccc(S(=O)(=O)Nc3ccc(Cl)cn3)cc2)C(=O)c2ccccc21
4. O=C(Nc1ccncc1)c1ccc(NC2=C(Cl)C(=O)c3ccccc3C2=O)cc1
5. Cc1csc(NS(=O)(=O)c2ccc(NC3=C(Cl)C(=O)c4ccccc4C3=O)cc2)n1
6. O=C(Nc1cccc2ccccc12)c1ccc(NC2=C(Cl)C(=O)c3ccccc3C2=O)cc1

OUTPUT:
[7.76, 15.4, 28.9, 7.87, 15.4, 16.7]

* * *

assayed_system: Proteasome Macropain subunit (Homo sapiens)
assay_name: Inhibition of trypsin-like activity 20S proteasome beta subunit 2 of human MCF7 cells using fluorogenic substrate Boc-LRR-AMC at 10 uM after 1 hr by fluorescence analysis relative to control
Type: cell-based
measured_quantity: inhibition

CC(C)c1ccccc1NS(=O)(=O)c1ccc(NC2=C(Cl)C(=O)c3ccccc3C2=O)cc1: 17.1%

For every item in the list below, what is its measured inhibition?
1. Cc1csc(NS(=O)(=O)c2ccc(NC3=C(Cl)C(=O)c4ccccc4C3=O)cc2)n1
2. O=C(Nc1ccccc1)c1ccc(NC2=C(Cl)C(=O)c3ccccc3C2=O)cc1
3. Cc1csc(NC(=O)c2ccc(NC3=C(Cl)C(=O)c4ccccc4C3=O)cc2)n1
4. O=C1C(Cl)=C(Nc2ccc(S(=O)(=O)Nc3ccccn3)cc2)C(=O)c2ccccc21
5. O=C1C(Cl)=C(Nc2ccc(S(=O)(=O)Nc3ccc([N+](=O)[O-])cc3)cc2)C(=O)c2ccccc21
6. COc1cc(NS(=O)(=O)c2ccc(NC3=C(Cl)C(=O)c4ccccc4C3=O)cc2)cc(OC)c1
7. O=C(Nc1cccc(Cl)c1)c1ccc(NC2=C(Cl)C(=O)c3ccccc3C2=O)cc1

OUTPUT:
1. 21%
2. 3.19%
3. 7.11%
4. 29.6%
5. 22.7%
6. 22.7%
7. 27.6%

* * *

Give inhibition for every item shown.
assayed_system: Proteasome Macropain subunit MB1 (Homo sapiens)
assay_name: Inhibition of chymotrypsin-like activity 20S proteasome beta subunit 5 of human MCF7 cells using fluorogenic substrate Suc-LLVY-AMC at 10 uM after 1 hr by fluorescence analysis relative to control
Type: cell-based
Residues, ends and D or L forms follow the SMILES beside them. *: point of attachment. Cbz = O=C(OCc1ccccc1)*
Give bare numbers, in %.

Consider the reported inhibition for these compounds:
O=C1C(Cl)=C(Nc2ccc(S(=O)(=O)Nc3cccc4ccccc34)cc2)C(=O)c2ccccc21: 18.4
Cc1csc(NC(=O)c2ccc(NC3=C(Cl)C(=O)c4ccccc4C3=O)cc2)n1: 22.3
O=C(Nc1ccc(Cl)cc1)c1ccc(NC2=C(Cl)C(=O)c3ccccc3C2=O)cc1: 15.8
O=C1C(Cl)=C(Nc2ccc(S(=O)(=O)Nc3cccnc3Cl)cc2)C(=O)c2ccccc21: 22.4
CC(C)C[C@@H](C=O)NC(=O)[C@H](CC(C)C)NC(=O)[C@H](CC(C)C)NC(=O)OCc1ccccc1 (Cbz-Leu-Leu-Leu-aldehyde): 38.2
Cc1cccc(NC(=O)c2ccc(NC3=C(Cl)C(=O)c4ccccc4C3=O)cc2)c1: 14.6
O=C1C(Cl)=C(Nc2ccc(S(=O)(=O)Nc3ccccc3[N+](=O)[O-])cc2)C(=O)c2ccccc21: 17.3
O=C(Nc1nccs1)c1ccc(NC2=C(Cl)C(=O)c3ccccc3C2=O)cc1: 19.6

Report inhibition for every entry below.
1. O=C1C(Cl)=C(Nc2ccc(S(=O)(=O)Nc3ccc(Br)cc3)cc2)C(=O)c2ccccc21
2. COc1cc(NS(=O)(=O)c2ccc(NC3=C(Cl)C(=O)c4ccccc4C3=O)cc2)cc(OC)c1
3. O=C1C(Cl)=C(Nc2ccc(S(=O)(=O)Nc3ccccn3)cc2)C(=O)c2ccccc21
4. O=C(Nc1cccc(Cl)c1)c1ccc(NC2=C(Cl)C(=O)c3ccccc3C2=O)cc1
5. Cc1ccc(NS(=O)(=O)c2ccc(NC3=C(Cl)C(=O)c4ccccc4C3=O)cc2)nc1

OUTPUT:
1. 22.2
2. 20
3. 36.8
4. 21.6
5. 10.1

For each entry beneath this line, provide reported inhibition.
1. Cc1ccnc(NC(=O)c2ccc(NC3=C(Cl)C(=O)c4ccccc4C3=O)cc2)c1
2. O=C(Nc1ccncc1)c1ccc(NC2=C(Cl)C(=O)c3ccccc3C2=O)cc1
3. Cc1cc(NC(=O)c2ccc(NC3=C(Cl)C(=O)c4ccccc4C3=O)cc2)no1
4. O=C(Nc1ccccc1)c1ccc(NC2=C(Cl)C(=O)c3ccccc3C2=O)cc1
5. Cc1cccnc1NC(=O)c1ccc(NC2=C(Cl)C(=O)c3ccccc3C2=O)cc1
6. O=C1C(Cl)=C(Nc2ccc(S(=O)(=O)Nc3ccccc3Cl)cc2)C(=O)c2ccccc21
7. O=C1C(Cl)=C(Nc2ccc(S(=O)(=O)Nc3cccc(Cl)c3)cc2)C(=O)c2ccccc21
8. Cc1ccc(NC(=O)c2ccc(NC3=C(Cl)C(=O)c4ccccc4C3=O)cc2)nc1

OUTPUT:
1. 16.6
2. 8.96
3. 18.9
4. 4.03
5. 11.4
6. 3.25
7. 28.8
8. 22

# map each compound to its inhibition
1. O=C1C(Cl)=C(Nc2ccc(S(=O)(=O)Nc3cccc([N+](=O)[O-])c3)cc2)C(=O)c2ccccc21
2. O=C(Nc1cccnc1)c1ccc(NC2=C(Cl)C(=O)c3ccccc3C2=O)cc1
3. CC(C)c1ccccc1NC(=O)c1ccc(NC2=C(Cl)C(=O)c3ccccc3C2=O)cc1
4. CC(C)c1ccccc1NS(=O)(=O)c1ccc(NC2=C(Cl)C(=O)c3ccccc3C2=O)cc1
5. Cc1csc(NS(=O)(=O)c2ccc(NC3=C(Cl)C(=O)c4ccccc4C3=O)cc2)n1

OUTPUT:
23.5
16.3
17.2
20
24.8
